Listing of recorded Trimeric HA Binding: RLU by entry.
- target: recombinant soluble homotrimeric HA of A/Netherlands/219/03 (H7N7) (Influenza A virus A/Netherlands/219/03(H7N7))
- assay.method.text: HA microarray, BCC supernatant
- run.conditions: remark: other sources report otherwise
Express the result in RLU but write the number alone.

Task: Quick check: Trimeric HA Binding: RLU of TCN-550 (5096_F06) (antibody, V domains shown) VH: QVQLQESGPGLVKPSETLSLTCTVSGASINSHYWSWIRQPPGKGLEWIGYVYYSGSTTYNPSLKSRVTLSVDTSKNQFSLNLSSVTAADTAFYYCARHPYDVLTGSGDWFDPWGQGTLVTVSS VL: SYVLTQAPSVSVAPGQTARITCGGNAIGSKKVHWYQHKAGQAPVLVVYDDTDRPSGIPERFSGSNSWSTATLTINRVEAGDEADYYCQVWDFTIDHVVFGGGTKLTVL ?
Result: 939

Task: Check TCN-534 (5249_B02) (antibody, V domains shown) VH: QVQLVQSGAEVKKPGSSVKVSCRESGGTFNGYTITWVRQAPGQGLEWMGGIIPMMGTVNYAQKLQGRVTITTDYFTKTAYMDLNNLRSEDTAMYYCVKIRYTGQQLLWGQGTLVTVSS VL: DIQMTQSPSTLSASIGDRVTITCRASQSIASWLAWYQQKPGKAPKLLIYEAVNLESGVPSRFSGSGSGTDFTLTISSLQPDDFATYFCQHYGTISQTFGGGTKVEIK too.
Result: 4340
